Where these numbers come from: FireProtDB (doi:10.1093/protein/14.12.967)

B1: Lysozyme C, milk isozyme, P81708 (parent)
chain: KIFSKCELARKLKSMGMDGFHGYSLANWVCMAEYESNFNTQAFNGRNSNGSSDYGIFQLNSKWWCKSNSHSSANACNIMCSKFLDDNIDDDIACAKRVVKDPNGMSAWVAWVKHCKGKDLSKYLASCNL

- Variants of: B1
- setupConditions: Canis lupus familiaris; pH 4.5; 66.4 °C; Thermal; DSC; sodium acetate 50 mM; reversible: yes; structure 1EL1; whole UniProt chain shown
Give unfolding free energy for every item shown.
// return numeric value only (unit: kcal/mol, not printed)

What unfolding free energy value was documented for this variant, V109K ?
1.72

Param item = H21G ; retrieve measured unfolding free energy.
1.67

So what's the measured unfolding free energy for this one? I56L
1.91

Give its unfolding free energy value. Item: A93S
1.89
